- Test system: biotinyl-Val-oxazolone
- test.method.notes: self-aminoacylation, catalytic enhancement (BVO) (fold over background); higher = more active; k-Seq, kA / k0A0; sequences stand for … in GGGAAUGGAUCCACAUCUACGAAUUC…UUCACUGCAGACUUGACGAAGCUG
Variants at the floor of the assay were thinned out.
Binary classification by self-aminoacylation, with 2 as an inclusive lower bound for T; all other cases are F.

Solved entries:
[in] Quick check: does CCACAGUUCAAGCAAUAGGUC [Fam1B.1 aminoacylation ribozyme variant] have self-aminoacylation greater than or equal to 2?
[out] F

[in] Quick check: does CUACUUCAAACAAUCGGUCGA [Fam1A.1 aminoacylation ribozyme variant] have self-aminoacylation greater than or equal to 2?
[out] F

---
[in] Quick check: does AUUACCCCGGUCAACGAGUGA [Fam2.1 aminoacylation ribozyme variant] have self-aminoacylation greater than or equal to 2?
[out] T

[in] Quick check: does CUGCUUCAAACAAUCGGUCUU [Fam1A.1 aminoacylation ribozyme variant] have self-aminoacylation greater than or equal to 2?
[out] F

[in] Quick check: does AUUACCCUGAUCAUCGAGAGA [Fam2.1 aminoacylation ribozyme variant] have self-aminoacylation greater than or equal to 2?
[out] F

[in] Quick check: does AUUACCCUAGUCUUCGAGUGA [Fam2.1 aminoacylation ribozyme variant] have self-aminoacylation greater than or equal to 2?
[out] T

[in] Quick check: does AAGGUCGCUAAUAGUCGCAAG [Fam3.1 aminoacylation ribozyme variant] have self-aminoacylation greater than or equal to 2?
[out] T

====

# self-aminoacylation values compiled below
- Tested on: biotinyl-Leu-oxazolone
- test.method.notes: self-aminoacylation, catalytic enhancement (BLO) (fold over background); higher = more active; k-Seq, kA / k0A0; sequences stand for … in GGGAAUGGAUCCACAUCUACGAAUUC…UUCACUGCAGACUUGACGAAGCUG
Variants at the floor of the assay were thinned out.
Answer with a number only.

Worked cases, self-aminoacylation given:
[in] self-aminoacylation for AUAACCCUGGUCAUCGAGUAA [Fam2.1 aminoacylation ribozyme variant] ?
[out] 3.46

[in] self-aminoacylation for AUGUUUGCUAAUAGUCGCUAG [Fam3.1 aminoacylation ribozyme variant] ?
[out] 1.06

[in] self-aminoacylation for CUACUUCAAUCAAUCAGUCUG [Fam1A.1 aminoacylation ribozyme variant] ?
[out] 0.946

---
[in] self-aminoacylation for CCUCACUUCAAGCAACCGGUC [Fam1B.1 aminoacylation ribozyme variant] ?
[out] 0.806

====

- Test system: biotinyl-Met-oxazolone
- test.method.notes: self-aminoacylation, catalytic enhancement (BMO) (fold over background); higher = more active; k-Seq, kA / k0A0; sequences stand for … in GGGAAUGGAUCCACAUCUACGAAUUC…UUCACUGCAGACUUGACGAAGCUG
This sample holds only a part of the variants without activity.
Class boundaries, taken from values of self-aminoacylation, are as follows: zone 1 (below 2), zone 2 (2 to below 5), zone 3 (5 or more)

[in] Classify this sequence: AGUACCCUGGUCAUCGAGUGU [Fam2.1 aminoacylation ribozyme variant]
[out] zone 3

[in] Classify this sequence: AUUACGCUUGUCAUCGAGUGA [Fam2.1 aminoacylation ribozyme variant]
[out] zone 2

[in] Classify this sequence: AAGUAUGCUAAUAGUCUCAAG [Fam3.1 aminoacylation ribozyme variant]
[out] zone 1

[in] Classify this sequence: CUACUUCAAACACUCCGUCUG [Fam1A.1 aminoacylation ribozyme variant]
[out] zone 1

[in] Classify this sequence: AUUCCCCUGGUGAUCGAGUGA [Fam2.1 aminoacylation ribozyme variant]
[out] zone 3

---
[in] Classify this sequence: CUACUUCAAAGAAUCGGUGUG [Fam1A.1 aminoacylation ribozyme variant]
[out] zone 1

[in] Classify this sequence: CUAUUUCAAACAAUCGGUCUG [Fam1A.1 aminoacylation ribozyme variant]
[out] zone 1
